- Test system: Plasmodium berghei
- ASSAY REMARKS: Screen against P. berghei liver stage (PbLuc), transformed with Luciferase, at 2uM
- Assay type: functional, HepG2
- CONDITION NOTES: tested at 2 uM
About 2,700 (4%) of roughly 68,000 compounds showed an effect of 50% or more. Shown is part of a subset that was picked to be rich in strong results.
PROPERTY LABEL: INHIBITION (%)
The reply should be a number in %, with the unit left off.

Use these answered entries as a reference point.
{"MOLECULE": "CCc1ccc(C(=O)N2CCCC2c2nnc3n2CCCCC3)o1 (stereo not given)", "TEST TARGET": "Plasmodium berghei", "INHIBITION, %": 17.33}
{"MOLECULE": "Cc1nc(CC(C)C)sc1C(=O)N1CCC1", "TEST TARGET": "Plasmodium berghei", "INHIBITION, %": 11.18}
{"MOLECULE": "CC[C@H]1CN2CC[C@H]1C[C@@H]2CNC(=O)c1ccco1", "TEST TARGET": "Plasmodium berghei", "INHIBITION, %": 9.42}
{"MOLECULE": "CN(C[C@H]1CN2CC[C@H]1C[C@@H]2CNC(=O)c1ccco1)c1ccccc1", "TEST TARGET": "Plasmodium berghei", "INHIBITION, %": 65.7}

Exercise: Sample Cc1ccnc(OC[C@]23COC[C@H]2CN(C(=O)Cc2ccsc2)C3)n1 — what was its INHIBITION?
Solution: 11.1
